Reference source: a melting point compilation (Tetko et al.)

YES if melting point is below 8 °C. NO if not; exact matches included in NO.

Field: example entries. Status: answers known.
COMPOUND	ASSIGNED CATEGORY
COc1ccc2c(=O)n3c(cc2c1)CCCC3	NO
NS(=O)(=O)c1ccc(SCCO)cc1	NO
Cn1cncc1CC1COC(=O)C1C(O)c1ccccc1 (configuration not stated)	NO
COc1ccc2cc(C(=O)c3cc4ccc(OC)cc4oc3=O)c(=O)oc2c1	NO
O=C(O)CCCOc1ccccc1	NO

Q. Threshold test, melting point < 8 °C: `Cc1ccc(C)[nH]1`
A. YES

Q. For this compound, is melting point lower than 8 °C? COC(=O)C(C)Cl (configuration not stated)
A. YES

Q. I wonder whether `CCCCC(=O)N(C)C` has melting point below 8 °C. Can you tell?
A. YES

Q. Please determine if CC12CCC3C(CCC4CC5(CCC43C)OCCO5)C1CCC2=O (configuration not stated) is below 8 °C in terms of melting point.
A. NO

----------
// values below are reported melting point

1) CC(C)(C)OC(=O)N1CCC(c2nc(CO)cs2)CC1 97 to 101 °C
2) O=[N+]([O-])c1cc(C(F)(F)F)cc([N+](=O)[O-])c1O 47 to 48 °C
3) O=[N+]([O-])c1ccc(-c2nc3n(c2[N+](=O)[O-])CCS3)cc1 203 to 205 °C
4) CC1=C(C#N)Cc2ccccc21 63 to 63.6 °C

API: the following record is the query input.
Q. Specify reported melting point for the compound shown: `O=Cc1csc(-c2ccccc2)n1`
A. 51 to 52 °C

----------
Listing of entries alongside the reported melting point.

Worked cases, answers included:
1) O=c1cc(C(F)(F)F)c2cc(Cl)c(O)cc2o1 178 to 182 °C
2) CCOC(=O)c1cc(-c2cccs2)n(C)n1 38 to 41 °C

Could you now consider this next molecule?
Q. Give recorded melting point. `O=C(O)c1sccc1C1OCCO1`
A. 142 to 144 °C

----------
Each entry below lists one item and its recorded melting point value.

1. Fc1cccc(-n2cc[nH]c2=S)c1 162 to 164 °C
2. Nc1cccc(CN2CCCC2)c1 72 to 74 °C

Q. Name the recorded melting point of the compound listed here: `COc1ccc(-c2cc(C(F)(F)F)[nH]n2)cc1OC`
A. 150 to 156 °C

----------
Property: melting point; scope: individual compounds

// below: answered compounds
COMPOUND	melting point
CCOC(=O)CCC(C)C1CCC2C3C(O)C(Br)C4CC(OC(C)=O)CCC4(C)C3CC(OC(C)=O)C12C (stereo not given)	164 to 167 °C
NCc1ccc2occc2c1	32 to 34 °C
CC(C)(C)OC(=O)N1CCN(c2ccc(C=O)cn2)CC1	126 to 128 °C
CC(C)(C)OC(=O)N[C@H]1CCCNC1	125 °C

# evaluate next
Q. Look up melting point of `CCC1=[N+]([O-])C(C)(C)N(C)C1(C)C` and report it.
A. 32 to 34 °C

----------
Here the recorded melting point is given for each entry.

Some solved cases for reference:
COMPOUND	OBSERVED RESULT
Sc1nc2ccccc2o1	192 to 195 °C
OCc1cccc(Oc2ccccn2)c1	57 to 59 °C
Oc1ccc(O)c2c1C1CCC2C1	172 to 178 °C
Cn1c(=O)c(C2=NNC(=O)C2=CNc2ccc(Cl)cc2)c(O)c2ccccc21	290 °C

Q. Please supply the value of reported melting point for the item CC(N)(Cc1ccc(O)cc1)C(=O)O (stereo unspecified)
A. 312 °C

Q. Return reported melting point. Input compound: CC(C)CC1(NC(=O)c2ccccc2)COCOC1=O (racemic)
A. 100 to 102 °C

----------
PROPERTY MEASURED: melting point (°C)
Give just the number in °C; leave the unit off.

COMPOUND	READING UNIT	OBSERVED RESULT
CCC(C)(O)C(C)(C)C (centres undefined)	°C	-6

The record that follows has no melting point shown yet.
Q. Consider the compound `CC(C)CC(=O)C1C(=O)c2ccccc2C1=O` . State its measured melting point.
A. 68.5

----------
We begin with a simple list: items and their reported melting point.

Study these solved cases before continuing.
COMPOUND	melting point
CC(C)(C)c1ccc(N)c(N)c1	98 to 100 °C
CC(=O)Nc1ccc(C2=NN(c3ccccc3)C(=O)/C2=C/C2C(=O)N(c3ccccc3)N=C2c2ccc(NC(C)=O)cc2)cc1 (stereo not drawn)	317 °C
Nc1ccc(Cl)nc1Cl	122 to 123 °C
BrCc1ccc(-c2ccsc2)cc1	107 to 109 °C
Cc1ccc(C#N)c(N)c1	92 to 93 °C
COC(=O)c1ccccc1SCC(C)=O	60 to 61 °C

Q. Tell me measured melting point for `O=C(O)C1CCN(C(=O)OCc2ccccc2)CC1` please.
A. 78 to 81 °C

Q. Give melting point for the following compound: `N=C(N)SCCCS(=O)(=O)O`
A. 240 to 248 °C

----------
PROPERTY MEASURED: melting point

Worked examples follow.
COMPOUND	melting point
Brc1ccc(-c2ccc(Br)s2)s1	143 to 146 °C
COC(=O)CCC(C)C1CCC2C3C(OC(C)=O)CC4CC(=O)CCC4(C)C3CC(=O)C12C (stereo not drawn)	165 to 167 °C
O=C1CCCN1c1ccc(Br)cc1	98 to 101 °C

Q. Note down melting point recorded for `Cc1nc(NC(=O)NS(=O)(=O)c2cccs2)nc(C)c1C`
A. 188 to 189 °C

Q. Answer with the recorded melting point for the compound listed here: `Nc1c(Br)cc(Br)cc1C(=O)O`
A. 235 to 236 °C

----------
Entries annotated with measured melting point

Worked set:
COMPOUND	melting point
O=C(O)CNC(=O)OCC1c2ccccc2-c2ccccc21	174 to 178 °C
CCOC(=O)c1cc(-c2ccco2)[nH]n1	137 to 138 °C

Q. Give recorded melting point. Cc1cccc2c1CC(C(=O)O)NC2 (racemic)
A. 316 to 318 °C

----------
# Lookup of reported melting point keyed by entry

Guide cases for melting point, answers given:
COMPOUND	melting point
CC1(C)OC2COC3(CO)OC(C)(C)OC3C2O1 (centres undefined)	95.5 to 97.5 °C
O=C(Oc1c(F)c(F)c(F)c(F)c1F)c1cccc(Oc2ccccn2)c1	60.5 to 61.5 °C
Nc1ccc(SCC(=O)O)cc1	193 to 203 °C

Q. Check the records and state melting point for CCC1CC(NC(=O)CBr)C(C)(C)N1O (centres undefined)
A. 148 to 150 °C

----------
Each entry below carries its reported melting point.

COMPOUND	melting point
O=c1cc(Cl)nc[nH]1	194 to 195 °C

Q. Provide melting point value for the following compound: `O=Cc1ccc(N2CCOCC2)s1`
A. 126 to 128 °C

Q. Please report melting point for the following compound: O=C1c2ccccc2CC1Br (stereo not given)
A. 39 to 44 °C

Q. Provide measured melting point value, entry: `NNC(=S)NCc1cccnc1`
A. 171 to 173 °C

Q. Query melting point for `O=C(Cl)c1cccc(C(Cl)Cl)c1`
A. 57 to 63 °C

----------
Examples of compounds with documented melting point follow.
Write down the numeric answer in °C and omit the unit.

COMPOUND	OBSERVED RESULT
COC(=O)CCC(C)C1CCC2=C3CCC4CC(OC(C)=O)CCC4(C)C3CC(OC(C)=O)C21C (stereo not given)	234

Q. Give the value of melting point reported for the following: `CCOC(=O)c1nn(-c2ccccc2)c(=N)c(-c2nc3ccccc3s2)c1C`
A. 148

Q. Tell me melting point reported for `CC(C)CC1c2ccccc2-c2ccccc21`
A. 45

Q. Report measured melting point; entry is `O=[N+]([O-])c1ccc(F)c(Cl)c1`
A. 44

----------
Below: a set of entries, each annotated with reported melting point.

Q. Give melting point for the following compound: `CC(C)(C)c1cc(C(F)(F)F)n[nH]1`
A. 178 to 180 °C

----------
Item-by-item account of melting point

Answered examples (2):
1) O=C1CCC(c2ccccc2)=NN1c1n[nH]c(=S)n1-c1ccccc1 180 to 182 °C
2) Cc1cc(C)c(CSCc2c(C)cc(C)cc2C)c(C)c1 145 to 146 °C

Q. Report melting point for `COc1ccc(C(=O)O)c(O)c1`
A. 157 to 159 °C

----------
Each entry below carries its recorded melting point.

COMPOUND	OBSERVED RESULT
C=CCc1c(N)c(C(C)=O)cc(C(C)=O)c1O	99.5 to 102 °C
CC(CC(C)C(=O)O)C(=O)O (stereo unspecified)	104 to 108 °C
O=C(O)C1=CC(Cl)=C(Cl)[C@H](O)[C@@H]1O	195 to 200 °C
CC1=NN(c2ccccc2)C(=O)C1C(=O)c1ccccc1 (stereo unspecified)	90 to 92 °C
OCc1ccc(-c2ncccn2)cc1	76.5 to 77.5 °C

Q. Return melting point (reported value) for this compound: `CS(=O)(=O)OS(C)(=O)=O`
A. 69 to 70 °C

Q. Give me measured melting point, please, for this compound: `O=Cc1cccc2c1OCCO2`
A. 62 to 63 °C

Q. Identify measured melting point corresponding to `Cc1cc(=O)oc2cc(OCC(=O)Cl)ccc12`
A. 129 °C

Q. Output melting point of `COc1ccc(C(=O)c2ccc(Cl)cc2)cc1OC`
A. 109 °C

Q. Determine its reported melting point: `N#CC(C#N)=C1c2cc([N+](=O)[O-])ccc2-c2c1cc([N+](=O)[O-])cc2[N+](=O)[O-]`
A. 267 °C

Q. Kindly indicate its recorded melting point. Item: CC(CO)(NC(=O)c1ccccc1)C(=O)O (racemic)
A. 153 to 159 °C

Q. Look up and report measured melting point for this entry: `CC(C)(C)C(=O)Nc1ncccc1C=O`
A. 87 to 91 °C

Q. Check the records and state melting point for `N#Cc1ccc(C#N)c(OC(F)(F)F)c1`
A. 79 to 81 °C

Q. Output melting point of `COC(=O)c1cscc1OC`
A. 70 to 71 °C

Q. Please indicate melting point recorded for `NNC(=O)c1cc2ccccc2cc1O`
A. 206 to 208 °C

Q. Let me know recorded melting point for `N#CC(C#N)=Cc1sccc1C=O` , thanks.
A. 126 to 130 °C
